# Tested on: THRa homodimer (NR concentration 90 nM)
# assay.overview: PBM binding z-score (relative to random genomic background probes); higher = stronger binding; sequences stand for … in GC…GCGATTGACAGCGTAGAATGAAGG
Would you mind classing the entries by PBM binding z-score? Ranges: lower band: < 0.04; central band: ≥ 0.04 and < 0.6; upper band: ≥ 0.6

| monomer.sequence | classification |
| --- | --- |
| GCGACTGAGGCAAAGCAGGTTACCATAAGGTTGG | lower band |
| CAGCTTAGGTCAGGGCCAGTATAGGAGGAACGTT | upper band |
| CCTCGGAGAACAGAAGGTCAGAGCTGTCCGCTTT | lower band |
| CCTACTGGGCCATAAAGGTCATTGATGCCGATAA | central band |
| TCGAGTAGGTTAGTCGGGGCTTTCAGCCAACATA | lower band |
| TCATATAGGTAAAAGGCGAAAGTCGGTGTGGTAA | lower band |
| TCTAGTTGGTCAAAGGTCACCCACTCGAAATGCG | upper band |
| ATATGTATGTTACATCCGGGTCATTCAGGCTATG | upper band |
| CCTTACGGGCCAAGGTTATAGCACGGGTGGTACG | central band |
| CCTACTGGGCCACGAAAGGTCATTAATTCAGTGA | upper band |
| CAGCCTAGGTCAGGGCCAGTATAGGAGGAACGTT | central band |
| CCTAATGGGCCATCAGGTCATTGATATCAACGTT | upper band |
| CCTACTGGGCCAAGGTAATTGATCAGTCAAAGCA | lower band |
| GCTGCTAGGTCAGGTTAGTCAGCTAACGGGTACG | central band |
| GCTATAAGTTGAAAGGGCAACCGAATGATTCTCG | lower band |
| TCAGACAGGAGAAGGTAACTCAGGTACGCAGTCG | central band |
| AGTCAAAGTTCATCTAGGTAACGGAAGATATGCT | central band |
| TAGCCTAGGTCCTTGGGCCAGTATAGTACGCATC | lower band |
| ACAATTAGTTGAGACGAGGGCAACCGATAGGTTG | central band |
| AGAATGAGGTTATACGTAGATCAGAGAAGAAAGT | central band |
| GATACAGGGTCAGCTATAGGCCAGAGTATGGAAA | central band |
| TCTGCTAGGTCAACGATGGTCAGCTTATCTGCTA | upper band |
| CCTAGCAGGCCAGCGTCACTCAAGCATTTCGCTT | lower band |
| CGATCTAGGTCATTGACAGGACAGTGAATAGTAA | upper band |
